System: SK-OV-3 ovarian
test summary: NCI tumour cell line growth inhibition, 48 h
attribute measured: TGI (µM)
Hi! Could you send only the number? It should be in µM, unit omitted.

COc1ccc(/C=C/C(=O)CCN2CCN(CCC(=O)/C=C/c3ccc(OC)cc3)CC2)cc1 = 24.1

// next item, TGI requested
Input: Report TGI for COc1c(B(O)O)cccc1-c1nc2c(F)cc3n[nH]c(C)c3c2c2c1CCCC2 please.
Output: 4.71

###

System: RXF 393 renal
test summary: NCI tumour cell line growth inhibition, 48 h; in the data active = GI50 below about 0.43 µM; inactive = the rest
Permitted responses: Yes (active), No (inactive)

CC(=O)N[C@@H](Cc1ccc(OP(=O)(O)O)cc1)C(=O)N[C@H]1CCC(=O)N2CCC[C@@H](C(=O)NC3CCc4ccccc43)N2C1=O (stereo partly drawn) = No
O=c1/c(=C\c2ccc(Br)cc2)sc2n1C(c1ccc(Br)cc1)C1=C(N=2)c2ccc3ccccc3c2OCC1 (stereo not drawn) = No
Nc1n[nH]c2ccc([C@@H]3Nc4ccc5cn[nH]c5c4[C@H]4C5CCC(C5)[C@@H]34)cc12 (stereo partly drawn) = Yes
CCOc1ccc2c(c1)C(=O)c1c-2n(CCCN=[N+]=[N-])c(=O)c2cc([N+](=O)[O-])ccc12 = No

Input: Just curious, what result did Nc1ncnc2c1ccn2-c1cccc(NC(=O)c2ccc(N3CCOCC3)c(C(F)(F)F)c2)c1 get here?
Output: No

Input: Same question, O=C(NN1C(=O)CSC1c1c(Cl)cccc1Cl)C(O)c1ccccc1 (stereo not drawn) this time
Output: No

Input: Also O=C(Nc1cccc(-n2cc(-c3ccncc3)c(-c3ccc(Cl)c(O)c3)n2)c1)Nc1ccc(Cl)c(Cl)c1 ?
Output: No

Input: Next compound up: Cc1cc(C)c2c(c1)N(C)c1ncnc(-n3cnc4cc(C)ccc43)c1CC2C (stereo not drawn)
Output: No

###

Tested on: PC-3 prostate
test summary: NCI tumour cell line growth inhibition, 48 h; in the data active = GI50 below about 0.43 µM; inactive = the rest
// allowed return values: T = active, F = inactive

O=c1/c(=C\c2ccc(Br)cc2)sc2n1C(c1ccc(Br)cc1)C1=C(N=2)c2ccc3ccccc3c2OCC1 (stereo unspecified) = F
CCCCOC(=O)c1c(C)[nH]c(/C=C2\N=C(c3ccc[nH]3)C=C2OC)c1C = T

Input: Dear all, I need the recorded test outcome for CO/C(=C1/NC(=O)C(Cc2ccc(O)c(Br)c2)N(C)C(=O)C(C)NC(=O)CCC/C=C(\C)CCC(C)OC1=O)c1ccccc1 (stereo unspecified) , thank you.
Output: T

Input: And O=C1OCC2=C1C(c1cccc(Cl)c1)c1cc3c(cc1N2CCO)CCC3 (stereo unspecified) ?
Output: T

Input: How about COC(=O)[C@]12CC[C@@H](C)[C@H](C)[C@@H]1C1=CC[C@@H]3[C@@](C)(CC#N)C4=C(C[C@@]3(C)[C@]1(C)CC2)OC[C@]4(C)C=O ?
Output: F

Input: Continue with CCN(CC)CC(O)c1cc(-c2ccc(Cl)cc2)nc2c(C)c(Cl)ccc12 (stereo unspecified)
Output: F

###

System: NCI-H23 lung
test summary: NCI tumour cell line growth inhibition, 48 h
attribute measured: TGI

Consider the worked cases shown below.
COC(=O)[C@]12CC[C@@H](C)[C@H](C)[C@@H]1C1=CC[C@@H]3[C@@](C)(CC#N)C4=C(C[C@@]3(C)[C@]1(C)CC2)OC[C@]4(C)C=O = 40.7 µM
CC(=O)OCC1OC(O[C@H]2C=C[C@@H](C(=O)OCc3ccccc3)n3c(=O)n(-c4ccccc4)c(=O)n32)C(OC(C)=O)C(OC(C)=O)C1OC(C)=O (some centres undefined) = 9.02 µM

Input: Give the reported TGI for COc1cc(CC(=O)O)c([N+](=O)[O-])cc1OC (system: NCI-H23 lung).
Output: > 100 µM

Input: Same lookup for Cc1ccc(NC(=O)CC2SC(=Nc3ccc(Cl)cc3)NC2=O)cc1C (centres undefined) , please.
Output: 35.6 µM

Input: Now give it for Nc1nc(N)c2c(n1)CCC(S(=O)(=O)c1ccc3ccccc3c1)C2 (centres undefined) too.
Output: > 100 µM

Input: Thanks! And O=C(CCN1CCCN(c2cnc3ccccc3n2)CC1)c1csc2ccccc12 ?
Output: 46.7 µM

Input: Follow-up entry: COc1ccc(-c2c3c(nc4nc(SCC(=O)c5ccc(Br)cc5)nc(N)c24)CCCC3)cc1OC
Output: > 100 µM

Input: Also check CCN(/N=C1\CC2C=CCN(C2)C(=O)Cc2c1[nH]c1ccccc21)S(=O)(=O)c1ccc(C)cc1 (centres undefined)
Output: > 100 µM

Input: Next molecule: CN(C)CC(C)(C)CN1c2ccccc2Sc2ccccc21
Output: 30.2 µM
